Reported IC50 values for a set of binders
Molecular target: T1, human glucagon receptor (human, UniProt P47871 26-477)
T1 construct: whole, on cells; reporter assay on whole cells
T1 sequence (P47871 26-477): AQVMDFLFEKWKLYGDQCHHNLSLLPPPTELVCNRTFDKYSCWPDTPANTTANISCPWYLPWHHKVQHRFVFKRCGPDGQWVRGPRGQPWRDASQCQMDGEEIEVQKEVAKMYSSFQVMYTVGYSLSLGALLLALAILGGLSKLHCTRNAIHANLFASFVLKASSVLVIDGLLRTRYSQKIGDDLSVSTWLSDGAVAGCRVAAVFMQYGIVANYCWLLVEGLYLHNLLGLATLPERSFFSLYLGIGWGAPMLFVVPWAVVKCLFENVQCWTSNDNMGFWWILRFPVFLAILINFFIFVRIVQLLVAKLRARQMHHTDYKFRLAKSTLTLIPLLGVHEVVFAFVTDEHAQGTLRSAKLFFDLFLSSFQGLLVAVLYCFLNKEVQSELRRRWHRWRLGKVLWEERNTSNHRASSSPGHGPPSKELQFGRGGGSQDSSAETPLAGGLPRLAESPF
Experiment: SPA displacement of [125I]-glucagon from human glucagon receptor BHK membranes
*1 amine or outer side, *2 acyl side, *3 side chain or, on linkers, in order; H or OH if unused. Side-chain parts run from the residue outwards. [ ]: non-standard residue; d: D form. The star is where a group is joined. C20 diacid = O=C(O)CCCCCCCCCCCCCCCCCCC(=O)*; C18 diacid = O=C(O)CCCCCCCCCCCCCCCCC(=O)*; γGlu = O=C(O)[C@H](CCC(=O)[*:2])N[*:1]; Desaminohistidyl = O=C(CCc1c[nH]cn1)*; Aib = CC(C)(N)C(=O)O
MEASUREMENT_KIND: IC50 (nM)

- [Desaminohistidyl][Aib]HGTFTSDVSRYLEEQAAREFIAWLLK([Gly-Ser-Glu-Gly-Ser-γGlu-γGlu-C18 diacid])T-NH2: 3.8
- [Desaminohistidyl][Aib]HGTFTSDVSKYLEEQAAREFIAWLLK([Gly-Ser-Glu-Gly-Ser-γGlu-γGlu-C20 diacid])T-NH2: 6
- [Desaminohistidyl][Aib]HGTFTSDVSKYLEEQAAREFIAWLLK([Ado-Ado-γGlu-C18 diacid])T-NH2: 20.3
- [Desaminohistidyl]AHGTFTSDVSKYLEGRAAREFIAWLLK([Ado-Ado-γGlu-γGlu-γGlu-C18 diacid])T-NH2: 25.9
